B1: TPR 5TU (parent)
chain: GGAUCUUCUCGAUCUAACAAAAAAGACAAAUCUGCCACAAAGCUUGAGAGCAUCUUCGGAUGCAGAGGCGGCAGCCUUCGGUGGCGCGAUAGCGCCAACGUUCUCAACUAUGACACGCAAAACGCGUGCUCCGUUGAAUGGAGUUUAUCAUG

# Variants of: B1
# ASSAY PROTOCOL: polymerase ribozyme fitness, log enrichment relative to wild type (log ratio); higher = more active; in vitro selection for triplet polymerase activity
Fewer inactive variants are shown than the library holds.
PROPERTY NAME: polymerase ribozyme fitness (log ratio)

> print(dat)
                                  alteration                            property.name  result
 1       A3G U6A A39U G84U U134A U144C A150U  polymerase ribozyme fitness (log ratio)  ≤ -4.2
 2                 C35U A52C U55A C93U C149A  polymerase ribozyme fitness (log ratio)  ≤ -4.2
 3      A29U G46U G59A G70A A89U G117U U148A  polymerase ribozyme fitness (log ratio)  ≤ -4.2
 4                    C35A G100A C125G C131G  polymerase ribozyme fitness (log ratio)  ≤ -4.2
 5                            A49C C79G G94C  polymerase ribozyme fitness (log ratio)  ≤ -4.2
 6             A28G A52C U55C C63A C87U A91U  polymerase ribozyme fitness (log ratio)  ≤ -4.2
 7                           U82A A91G C105U  polymerase ribozyme fitness (log ratio)   -2.53
 8                   C5U U7C A21U G86A C131A  polymerase ribozyme fitness (log ratio)   -4.16
 9                                U53A G141U  polymerase ribozyme fitness (log ratio)   0.504
10                 A22G A41C G50A C95U U101G  polymerase ribozyme fitness (log ratio)   -1.78
11                A19C A52G G88A A106G U139A  polymerase ribozyme fitness (log ratio)  ≤ -4.2
12               A28U C87U A119C A138U G140C  polymerase ribozyme fitness (log ratio)  ≤ -4.2
13                                 A12G G83C  polymerase ribozyme fitness (log ratio)  -0.586
14           C18G G42A U45A G58U A122C A142G  polymerase ribozyme fitness (log ratio)  ≤ -4.2
15                      C14G G59C C69A A142G  polymerase ribozyme fitness (log ratio)  ≤ -4.2
16          U90A G94U C95U C116G C118G C123G  polymerase ribozyme fitness (log ratio)  ≤ -4.2
17  C10A G34U A40U C57U U78G C79U G84C C85A U104A A120C  polymerase ribozyme fitness (log ratio)  ≤ -4.2
18           U56A C75G C93A A98G A106C G141A  polymerase ribozyme fitness (log ratio)  ≤ -4.2
19                          U55A U109G A137U  polymerase ribozyme fitness (log ratio)   -4.19
